Read-out: E-selectin (Homo sapiens) (UniProt P16581)
Sequence (P16581 whole entry, looked up): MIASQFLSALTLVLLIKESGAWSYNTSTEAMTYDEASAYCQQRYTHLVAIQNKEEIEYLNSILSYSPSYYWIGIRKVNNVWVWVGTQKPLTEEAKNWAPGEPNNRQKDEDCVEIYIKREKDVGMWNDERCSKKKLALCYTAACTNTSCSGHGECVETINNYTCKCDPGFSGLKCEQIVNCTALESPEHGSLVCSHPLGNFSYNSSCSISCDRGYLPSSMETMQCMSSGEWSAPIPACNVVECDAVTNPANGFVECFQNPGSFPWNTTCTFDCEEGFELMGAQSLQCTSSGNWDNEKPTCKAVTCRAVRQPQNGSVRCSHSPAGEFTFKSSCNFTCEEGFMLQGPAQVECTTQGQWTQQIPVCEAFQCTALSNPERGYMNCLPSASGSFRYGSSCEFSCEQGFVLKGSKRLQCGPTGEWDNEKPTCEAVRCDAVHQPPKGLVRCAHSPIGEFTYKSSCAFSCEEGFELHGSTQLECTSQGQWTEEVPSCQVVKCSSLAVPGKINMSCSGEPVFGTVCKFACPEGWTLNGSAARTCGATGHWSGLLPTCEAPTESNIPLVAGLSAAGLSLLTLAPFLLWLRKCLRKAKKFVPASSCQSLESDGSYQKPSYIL
Test: BSK_LPS_Eselectin: BioMAP Diversity Plus: LPS Assay for Eselectin Biomarker Activity (AID 2283077)
Conditions: primary human HUVEC with PBMC; actives raise or lower the signal
Method: BSK_LPS is a cell-based, multiplexed-readout assay that uses umbilical vein endothelium and peripheral blood mononuclear cells, a human vascular primary cell co-culture, with measurements taken at 24 hours after chemical dosing in a 96-well plate.BSK_LPS_Eselectin is an assay component measured in the BSK_LPS assay. It measures E-selectin antibody related to regulation of gene expression using ELISA technology.Data from the assay component BSK_LPS_Eselectin was analyzed into 1 assay endpoint. […]
Active and inactive are the calls of the source. The calls were made as follows: active = hit-call score of the fitted dose curve at least 0.9, where 1 is the maximum; inactive = score below 0.9.
Outcome codes: t for active, f for inactive

- molecule: "CC(=O)N1CCN(c2ccc(OC[C@H]3CO[C@](Cn4ccnc4)(c4ccc(Cl)cc4Cl)O3)cc2)CC1"
  class: "t"
- molecule: "C[C@]12CC[C@@H]3c4ccc(O)cc4CC[C@H]3[C@@H]1CCC2=O"
  class: "t"
- molecule: "O=C1c2ccccc2C(=O)N1CCc1noc(-c2ccc(CN3CCCCCC3)s2)n1"
  class: "f"
- molecule: "Cc1oc2c(NC(=O)c3c(Cl)cccc3Cl)cccc2c1C(C)(C)O"
  class: "t"
- molecule: "Cc1cc(F)ccc1-c1cc(N2CC[C@@H](O)[C@H]2CO)ncc1N(C)C(=O)C(C)(C)c1cc(C(F)(F)F)cc(C(F)(F)F)c1"
  class: "t"
- molecule: "CCCCCCCCCCCCO"
  class: "t"
- molecule: "CCCCOC(=O)c1ccc(O)cc1"
  class: "f"
- molecule: "CN1C(=O)N(c2ccccc2Br)Cc2cnc(Nc3ccc4c(c3)OCC(CO)O4)nc21 (configuration not stated)"
  class: "t"
- molecule: "Clc1ccccc1C(c1ccccc1)(c1ccccc1)n1ccnc1"
  class: "t"
- molecule: "CC(C)(O)c1ccc(CNC(=O)c2cccnc2Oc2ccc3nonc3c2)cc1"
  class: "f"
- molecule: "O=C(O)Cc1cc(I)c(Oc2ccc(O)c(I)c2)c(I)c1"
  class: "f"
- molecule: "O=C1O[C@H]([C@@H](O)CO)C(O)=C1O"
  class: "f"
- molecule: "Cc1ccc2oc(CN(Cc3ccccc3)C(=O)Nc3c(F)cc(F)cc3F)c(-c3ccc(Cl)cc3)c2c1"
  class: "f"
- molecule: "c1ccc2n[nH]nc2c1"
  class: "f"
- molecule: "CCCCCCCCN(C)CCCCCCCC"
  class: "f"
- molecule: "CCN(Cc1cccc(S(=O)(=O)O)c1)c1ccc(C(=C2C=CC(=[N+](CC)Cc3cccc(S(=O)(=O)O)c3)C=C2)c2ccccc2S(=O)(=O)[O-])cc1"
  class: "f"
- molecule: "CCCCCCCCCCCO"
  class: "f"
- molecule: "c1ccc(C[n+]2cccc3ccccc32)cc1"
  class: "f"
- molecule: "COc1ccc2cc(S(=O)(=O)N[C@H](CC(=O)N[C@H](Cc3ccc(CN4[C@H](C)CCC[C@@H]4C)cc3)C(=O)N(C)C(C)C)c3ccc4c(c3)OCO4)ccc2c1"
  class: "t"
- molecule: "NC(=O)c1nc(-c2cccc(-c3cc(F)ccc3OCC(F)(F)C(F)(F)F)c2)n[nH]1"
  class: "t"
- molecule: "OC12N=C(c3ccccc3)SC1Cc1cc(Cl)ccc12 (configuration not stated)"
  class: "f"
- molecule: "O=C(O)c1ccccc1C(=O)OCc1ccccc1"
  class: "f"
